Values were extracted from patent US5621133A.

# assayed_system: dopamine D-1 receptor
# assay_setup: read-out: EC50 (agonist activity in adenylate cyclase assay); tissue from goldfish retina or rat striatum
pEC50: −log10 of the molar value.
Each entry below carries its reported pEC50.
value_type: pEC50

1. CCCCC1Cc2c(ccc(O)c2O)C2=C1CCNC2 (centres unmarked) [Example 243] = 6.02
2. NC[C@H]1O[C@@H](CNC(=O)c2ccc(Br)cc2)Cc2c1ccc(O)c2O (relative stereo) [Example 167] = 6.92
3. CC1([C@@H]2Cc3c(ccc(O)c3O)[C@H](CN)O2)CCCCC1 (relative stereo) [Example 222] = 7.40
4. CCCCCCCCCC[C@@H]1Cc2c(ccc(O)c2O)[C@H](CN)O1 (relative stereo) [Example 65] = 6.49
5. NCC1=CC(C23CC4CC(CC(C4)C2)C3)Cc2c1ccc(O)c2O (centres unmarked) [Example 231] = 7.05
6. C=CCNC[C@H]1O[C@@H](CCCC)Cc2c1ccc(O)c2O (relative stereo) [Example 125] = 6.00
7. Cl.NCc1cc(-c2ccccc2)cc2c(O)c(O)ccc12 [Example 46, Hydrochloride] = 6.66
8. CCCCCC[C@@H]1Cc2c(ccc(O)c2O)[C@H](CN)O1 (relative stereo) [Example 68] = 7.85
